- TARGET_OR_SYSTEM: T1, human VLA4-Fc (alpha4-Fc/beta1-Fc heterodimer) (human)
- T1 construct: Soluble heterodimer from CHO cells, Protein A purified; also called VLA-Fc
- T1 sequence (chain, as listed by the source limits assumed, form in doubt, chain 1 of 2): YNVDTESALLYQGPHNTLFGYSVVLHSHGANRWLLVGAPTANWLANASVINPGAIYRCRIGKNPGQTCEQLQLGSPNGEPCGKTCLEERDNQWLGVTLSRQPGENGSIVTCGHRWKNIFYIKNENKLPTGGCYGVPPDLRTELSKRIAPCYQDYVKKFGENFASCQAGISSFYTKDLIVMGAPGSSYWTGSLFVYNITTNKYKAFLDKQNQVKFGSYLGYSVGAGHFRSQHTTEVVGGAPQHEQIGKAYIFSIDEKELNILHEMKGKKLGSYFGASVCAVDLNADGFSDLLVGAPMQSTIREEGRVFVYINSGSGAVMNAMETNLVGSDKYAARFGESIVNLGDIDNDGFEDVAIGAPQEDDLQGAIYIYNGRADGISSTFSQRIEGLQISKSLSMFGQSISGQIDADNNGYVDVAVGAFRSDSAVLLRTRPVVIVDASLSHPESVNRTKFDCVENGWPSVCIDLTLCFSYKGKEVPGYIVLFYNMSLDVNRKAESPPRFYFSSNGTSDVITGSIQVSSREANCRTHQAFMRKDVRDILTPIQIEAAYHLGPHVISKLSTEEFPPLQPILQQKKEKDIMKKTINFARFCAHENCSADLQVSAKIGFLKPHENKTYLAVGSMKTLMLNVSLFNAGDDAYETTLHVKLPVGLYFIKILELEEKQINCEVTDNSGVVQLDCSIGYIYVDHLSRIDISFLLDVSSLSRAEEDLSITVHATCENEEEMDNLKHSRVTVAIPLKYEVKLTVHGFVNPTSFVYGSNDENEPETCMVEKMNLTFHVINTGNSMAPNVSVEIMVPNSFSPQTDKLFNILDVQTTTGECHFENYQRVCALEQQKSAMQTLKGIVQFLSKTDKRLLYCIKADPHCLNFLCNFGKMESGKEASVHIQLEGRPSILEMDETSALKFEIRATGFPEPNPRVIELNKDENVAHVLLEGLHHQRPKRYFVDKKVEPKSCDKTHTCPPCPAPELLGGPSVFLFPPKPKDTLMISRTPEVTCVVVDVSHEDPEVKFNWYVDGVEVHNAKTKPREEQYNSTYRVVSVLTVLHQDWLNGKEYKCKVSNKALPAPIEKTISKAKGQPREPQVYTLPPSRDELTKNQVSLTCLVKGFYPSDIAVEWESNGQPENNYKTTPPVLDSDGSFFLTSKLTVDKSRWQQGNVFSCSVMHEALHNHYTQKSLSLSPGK
- T1 sequence (chain, as listed by the source limits assumed, form in doubt, chain 2 of 2): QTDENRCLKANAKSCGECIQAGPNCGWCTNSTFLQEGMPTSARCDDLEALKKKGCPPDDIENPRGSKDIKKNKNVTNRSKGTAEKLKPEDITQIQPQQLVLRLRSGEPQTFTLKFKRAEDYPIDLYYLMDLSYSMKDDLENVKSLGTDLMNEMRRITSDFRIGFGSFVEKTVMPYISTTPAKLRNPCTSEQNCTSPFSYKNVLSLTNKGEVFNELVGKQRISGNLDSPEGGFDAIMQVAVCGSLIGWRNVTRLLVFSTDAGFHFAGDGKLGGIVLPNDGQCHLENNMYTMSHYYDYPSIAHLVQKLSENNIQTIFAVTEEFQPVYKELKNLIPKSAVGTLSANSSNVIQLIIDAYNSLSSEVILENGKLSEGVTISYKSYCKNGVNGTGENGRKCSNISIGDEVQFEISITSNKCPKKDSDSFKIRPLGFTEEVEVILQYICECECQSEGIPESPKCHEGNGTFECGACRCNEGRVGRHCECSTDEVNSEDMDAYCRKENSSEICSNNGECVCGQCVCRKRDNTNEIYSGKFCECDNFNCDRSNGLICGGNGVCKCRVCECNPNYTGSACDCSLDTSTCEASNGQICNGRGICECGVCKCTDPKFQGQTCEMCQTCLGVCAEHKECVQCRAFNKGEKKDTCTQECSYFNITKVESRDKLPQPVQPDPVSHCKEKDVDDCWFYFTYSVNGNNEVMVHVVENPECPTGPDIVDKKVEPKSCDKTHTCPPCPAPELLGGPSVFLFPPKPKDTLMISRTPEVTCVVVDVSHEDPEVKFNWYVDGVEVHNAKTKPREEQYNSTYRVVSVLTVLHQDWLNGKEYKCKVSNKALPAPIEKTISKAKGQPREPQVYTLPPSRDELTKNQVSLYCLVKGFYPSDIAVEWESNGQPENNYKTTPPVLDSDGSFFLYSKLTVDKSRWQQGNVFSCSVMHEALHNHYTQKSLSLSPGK
- PROCEDURE_SUMMARY: SPR (BIACORE), crude CHO-S supernatant on VLA4-Fc
METRIC: fold weaker binding relative to 146R0 (KD(variant)/KD(146R0)) (fold)

>>> measured("146R18 (ligand, Crude CHO-S supernatant, 3x spacer-FLAG tagged) FKIETTPESRYLAQIGDSVSLTCSTTGCESPFFFWRPLIDSPLNGKVTNEGTTSTLTMNPVSFGNEHSYLCTATCESRKLEKGIQVEIYSFPKDPEIHLSGPLEAGKPITVKCSVADVYPFDRLEIDLLKGDHLMKSQEFLEDADRKSLETKSLEVTFTPVIEDIGKVLVCRAKLHIDEMDSVPTVRQAVKELQVYISPGGGSDYKDDDDKGGGSDYKDDDDKGGGSDYKDDDDKGS")
6.3
>>> measured("146R6 (ligand, Crude CHO-S supernatant, 3x spacer-FLAG tagged) FKIETTPESRYLAQIGDSVSLTCSTTGCESPLFFWRPLLDSPLNGKVTNEGTTSTLTMNPVSFGNEHSYLCTATCESRSLEKGIQVEIYSFPKDPEIHLSGPLEAGKPITVKCSVADVYPFDRLEIDLLKGDHLMKSQEFLEDADRKSLETKSLEVTFTPVIEDIGKVLVCRAKLHIDEMDSVPTVRQAVKELQVYISPGGGSDYKDDDDKGGGSDYKDDDDKGGGSDYKDDDDKGS")
1.8
>>> measured("146R20 (ligand, Crude CHO-S supernatant, 3x spacer-FLAG tagged) FKIETTPESRYLAQIGDSVSLTCSTTGCESPFFFWRPQIDSPLNGKVTNEGTTSTLTMNPVSFGNEHSYLCTARCESRSLEKGIQVEIYSFPKDPEIHLSGPLEAGKPITVKCSVADVYPFDRLEIDLLKGDHLMKSQEFLEDADRKSLETKSLEVTFTPVIEDIGKVLVCRAKLHIDEMDSVPTVRQAVKELQVYISPGGGSDYKDDDDKGGGSDYKDDDDKGGGSDYKDDDDKGS")
9.3
>>> measured("146R21 (ligand, Crude CHO-S supernatant, 3x spacer-FLAG tagged; also called I46R21) FKIETTPESRYLAQIGDSVSLTCSTTGCESPFFFWRTLLDSPLNGKVTNEGTTSTLTMNPVSFGNEHSYLCTARCESRSLEKGIQVEIYSFPKDPEIHLSGPLEAGKPITVKCSVADVYPFDRLEIDLLKGDHLMKSQEFLEDADRKSLETKSLEVTFTPVIEDIGKVLVCRAKLHIDEMDSVPTVRQAVKELQVYISPGGGSDYKDDDDKGGGSDYKDDDDKGGGSDYKDDDDKGS")
1

Sourced from patent US20120135912A1
